The reported measurements were obtained from patent US20260070911A1.

- Target or test system: AXL (Homo sapiens, UniProt P30530)
- Sequence (P30530 26-894): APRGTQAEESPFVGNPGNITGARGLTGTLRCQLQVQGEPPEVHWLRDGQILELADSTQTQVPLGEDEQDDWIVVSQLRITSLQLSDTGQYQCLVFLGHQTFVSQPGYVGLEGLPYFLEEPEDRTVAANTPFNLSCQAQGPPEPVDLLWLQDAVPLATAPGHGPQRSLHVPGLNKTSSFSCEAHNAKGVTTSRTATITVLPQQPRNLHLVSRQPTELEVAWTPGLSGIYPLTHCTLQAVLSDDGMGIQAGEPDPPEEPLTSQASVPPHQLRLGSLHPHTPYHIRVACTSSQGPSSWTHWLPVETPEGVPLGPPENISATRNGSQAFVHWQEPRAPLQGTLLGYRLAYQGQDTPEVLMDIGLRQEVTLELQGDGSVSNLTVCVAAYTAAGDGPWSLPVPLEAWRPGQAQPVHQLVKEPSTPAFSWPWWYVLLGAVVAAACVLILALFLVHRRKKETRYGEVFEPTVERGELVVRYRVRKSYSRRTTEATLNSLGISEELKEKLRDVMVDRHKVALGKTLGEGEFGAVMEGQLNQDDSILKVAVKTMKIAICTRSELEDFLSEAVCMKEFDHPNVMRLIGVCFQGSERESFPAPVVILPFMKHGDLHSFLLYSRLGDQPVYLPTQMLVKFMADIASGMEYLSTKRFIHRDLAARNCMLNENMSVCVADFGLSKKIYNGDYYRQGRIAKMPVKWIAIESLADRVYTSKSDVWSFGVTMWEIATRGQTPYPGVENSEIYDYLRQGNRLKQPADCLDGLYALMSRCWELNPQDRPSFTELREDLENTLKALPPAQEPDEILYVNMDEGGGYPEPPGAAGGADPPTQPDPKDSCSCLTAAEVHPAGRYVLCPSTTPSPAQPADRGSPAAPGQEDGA
- Measurement description: AXL enzymatic assay (ADP-Glo)
- Type: biochemical
- Particulars: purified kinase, ATP 50 μM, read-out: AXL Enzymatic Inhibition (%)
pIC50: −log10 of the molar value.
As shown below, each of these compounds has a reported pIC50 value.
Experimental readout: pIC50

Nc1cccc(-c2c(-c3ccccc3)oc3ncnc(Oc4ccc(NC(=O)c5cccn(-c6ccc(F)cc6)c5=O)cc4)c23)c1 [Compound 9]    4.30 to 7.00
CC(=O)Nc1cccc(-c2c(-c3cnn(C)c3)oc3ncnc(Oc4ccc(NC(=O)c5ccc(-c6ccc(F)cc6)o5)cc4)c23)c1 [Compound 118]    4.30 to 7.00
O=C(Nc1ccc(Oc2ncnc3[nH]cc(-c4ccccc4)c23)cc1)c1cccn(-c2ccc(F)cc2)c1=O [Compound 8]    4.30 to 7.00
CN(C)Cc1cccc(-c2c[nH]c3ncnc(Oc4ccc(NC(=O)c5cccn(-c6ccc(F)cc6)c5=O)cc4)c23)c1 [Compound 82]    > 7.70
Cc1cc(F)ccc1-n1cccc(C(=O)Nc2ccc(Oc3ncnc4oc(-c5cnn(C)c5)c(-c5cccc(N)c5)c34)cc2)c1=O [Compound 73]    > 7.70
Cn1cc(-c2oc3ncnc(Oc4ccc(NC(=O)c5cccn(-c6ccc(F)cc6F)c5=O)cc4)c3c2-c2cccc(N)c2)cn1 [Compound 92]    > 7.70
Cn1cc(-c2oc3ncnc(Oc4ccc(NC(=O)c5cccn(C6CCCCC6)c5=O)cc4)c3c2-c2cccc(N)c2)cn1 [Compound 83]    4.30 to 7.00
CC(=O)Nc1cccc(-c2c(-c3cn[nH]c3)oc3ncnc(Oc4ccc(NC(=O)c5cccn(-c6ccc(F)cc6)c5=O)cc4)c23)c1 [Compound 40]    > 7.70
Cc1c(C(=O)Nc2ccc(Oc3ncnc4oc(-c5cnn(C)c5)c(-c5cccc(N)c5)c34)cc2)c(=O)n(-c2ccc(F)cc2)n1C [Compound 121]    > 7.70
CN1CCN(Cc2ccc(-c3c(-c4cnn(C)c4)oc4ncnc(Oc5ccc(NC(=O)c6cccn(-c7ccc(F)cc7)c6=O)cc5)c34)cc2)CC1 [Compound 89]    > 7.70
Cn1cc(-c2oc3ncnc(Oc4ccc(NC(=O)c5cccn(-c6ccc(F)cc6)c5=O)cc4)c3c2-c2cccc(N3CCCCC3=O)c2)cn1 [Compound 175]    4.30 to 7.00
CC(=O)Nc1cccc(-c2c(-c3cn(C)nc3C)oc3ncnc(Oc4ccc(NC(=O)c5cccn(-c6ccc(F)cc6)c5=O)cc4)c23)c1 [Compound 27]    > 7.70
Cc1ccc(-n2c(=O)c(C(=O)Nc3ccc(Oc4ncnc5oc(-c6cnn(C)c6)c(-c6cccc(CN(C)C)c6)c45)cc3)cn2C)cc1 [Compound 137]    > 7.70
